- procedure details: Binding affinity of [125I]-T4 to rat liver nuclear extract at a dose of 37 ug/Kg
recorded metric: pKd
Remember, pKd is on a log scale: it is -log10 of the molar concentration.

Q: Fill in the blank: the reported pKd of Clc1cc2c(cc1Cl)Oc1cc(Cl)c(Cl)cc1O2 [2,3,7,8-TETRACHLORODIBENZO-P-DIOXIN] is ____.
A: 9.16

* * *

- procedure details: Binding affinity of [125I]T4 to rat liver nuclear extract (CONTROL)
recorded metric: pKd
Remember, pKd is on a log scale: it is -log10 of the molar concentration.

Q: Fill in the blank: the reported pKd of Clc1cc2c(cc1Cl)Oc1cc(Cl)c(Cl)cc1O2 is ____.
A: 9.15

* * *

- procedure details: Binding affinity of [125I]T4 to rat liver nuclear extract at a dose of 50 ug/Kg
recorded metric: Kd (pM)
Express your answer in pM, writing the number without its unit.

Q: Fill in the blank: the reported Kd of Clc1cc2c(cc1Cl)Oc1cc(Cl)c(Cl)cc1O2 [2,3,7,8-TETRACHLORODIBENZO-P-DIOXIN] is ____.
A: 720
